Tested on: 786-0
protocol.description: NCI tumour cell line growth inhibition, 48 h
Calls of active or inactive are those of the source. No stated cut-off is given here; in the data, active = GI50 up to about 1.1 µM and inactive = higher.
Outcome codes: active, inactive

> print(dat)
                                    compound  label.class
 1  CC1(C)CCC[C@@]2(C)C1CC[C@@]1(CO1)[C@@H]2/C=C\C(C=O)CC=O (stereo not given in full)     inactive
 2  CC(=O)Nc1ccc(N2C(=O)/C(=C\c3cccc(Oc4ccccc4)c3)S(=O)(=O)C2c2ccccc2)cc1 (stereo not given)     inactive
 3  CCOC(=O)C(NC(=O)c1nc[nH]c1[N+](=O)[O-])C(C)C (stereo not given)     inactive
 4      COc1ccc(-c2cc(=O)c3ccc(O)cc3o2)cc1OC     inactive
 5  COc1ccc(C(OCC2OC(n3ccc(NC(=O)c4ccccc4)nc3=O)C(O)C2O)(c2ccccc2)c2ccccc2)cc1 (stereo not given)     inactive
 6  CC(=O)OCC1OC(n2c(C)c(C)cc(C#N)c2=S)C(OC(C)=O)C(OC(C)=O)C1OC(C)=O (stereo not given)     inactive
 7  COc1c(C)c(OC)c2c(c1O)[C@@H]1[C@@H]3Cc4c(OC)c(C)c(OC)c(O)c4[C@H](CNC(=O)c4ccc5ccccc5n4)N3[C@@H](C#N)[C@H](C2)N1C       active
 8  O=[N+]([O-])c1ccc(N/N=C(\c2ccccc2)c2ccccn2)nc1       active
 9  C=C(C)CC(C(=O)O)c1ccc(C)cc1 (stereo not given)     inactive
10  COc1cc2c3c([nH]c2c(OC)c1OC)CCN(Cc1ccccc1)C3     inactive
